- Test system: dengue virus type 3
- Protocol summary: Activity of dengue virus 3 recombinant NS3 protease expressed in Escherichia coli C41(DE3) by fluorogenic assay
Non-standard residues stand in square brackets, D forms with d. Residues, ends and D or L forms follow the SMILES beside them. Tyr(3-NO2) = N[C@@H](Cc1ccc(O)c([N+](=O)[O-])c1)C(=O)O; 2Abz = Nc1ccccc1C(=O)O
Endpoint name: kcat (s⁻¹)

| Compound | Value unit | Measured value |
| --- | --- | --- |
| CSCC[C@H](NC(=O)CNC(=O)[C@H](C)NC(=O)[C@H](C)NC(=O)c1ccccc1N)C(=O)N[C@@H](Cc1ccc(O)c([N+](=O)[O-])c1)C(N)=O (H-[2Abz]AAGM[Tyr(3-NO2)]-NH2) | s⁻¹ | 0.012 |

a: NC(=O)C[C@H](NC(=O)c1ccccc1N)C(=O)N1CCC[C@H]1C(=O)N[C@@H](CO)C(=O)N[C@@H](Cc1cnc[nH]1)C(=O)N[C@@H](Cc1ccc(O)c([N+](=O)[O-])c1)C(N)=O (H-[2Abz]NPSH[Tyr(3-NO2)]-NH2)
b: CC(C)C[C@H](NC(=O)[C@@H]1CCCN1C(=O)[C@H](Cc1c[nH]c2ccccc12)NC(=O)[C@H](CO)NC(=O)c1ccccc1N)C(=O)N[C@@H](Cc1ccc(O)c([N+](=O)[O-])c1)C(N)=O (H-[2Abz]SWPL[Tyr(3-NO2)]-NH2)
Problem: Kindly identify the item with the lower kcat figure among these two: a and b Choose, then provide that item's label.
Result: a
(a: 0.00183 s⁻¹, b: 0.0148 s⁻¹)

A: C[C@@H](O)[C@H](NC(=O)CNC(=O)CNC(=O)c1ccccc1N)C(=O)N[C@@H](CC(=O)O)C(=O)N[C@@H](Cc1ccc(O)c([N+](=O)[O-])c1)C(N)=O (H-[2Abz]GGTD[Tyr(3-NO2)]-NH2)
B: C[C@@H](O)[C@H](NC(=O)CNC(=O)c1ccccc1N)C(=O)NCC(=O)N[C@@H](CC(N)=O)C(=O)N[C@@H](Cc1ccc(O)c([N+](=O)[O-])c1)C(N)=O (H-[2Abz]GTGN[Tyr(3-NO2)]-NH2)
C: C[C@@H](O)[C@H](NC(=O)[C@H](Cc1c[nH]c2ccccc12)NC(=O)[C@H](CC(N)=O)NC(=O)c1ccccc1N)C(=O)N[C@@H](CC(N)=O)C(=O)N[C@@H](Cc1ccc(O)c([N+](=O)[O-])c1)C(N)=O (H-[2Abz]NWTN[Tyr(3-NO2)]-NH2)
D: C[C@H](NC(=O)[C@H](CO)NC(=O)c1ccccc1N)C(=O)NCC(=O)N[C@@H](Cc1ccc(O)c([N+](=O)[O-])c1)C(N)=O (H-[2Abz]SAG[Tyr(3-NO2)]-NH2)
E: NC(=O)C[C@H](NC(=O)[C@H](Cc1cnc[nH]1)NC(=O)c1ccccc1N)C(=O)N[C@@H](CS)C(=O)N[C@@H](CS)C(=O)N[C@@H](Cc1ccc(O)c([N+](=O)[O-])c1)C(N)=O (H-[2Abz]HNCC[Tyr(3-NO2)]-NH2)
Problem: Order the records so the highest kcat appears first and the lowest last. Please express your ranking as an ordered list of the labels.
Result: D, A, B, C, E

====

- Test system: dengue virus type 2
- Protocol summary: Activity of dengue virus 2 recombinant NS3 protease expressed in Escherichia coli C41(DE3) by fluorogenic assay
Non-standard residues stand in square brackets, D forms with d. Residues, ends and D or L forms follow the SMILES beside them. Tyr(3-NO2) = N[C@@H](Cc1ccc(O)c([N+](=O)[O-])c1)C(=O)O; 2Abz = Nc1ccccc1C(=O)O
Endpoint name: Km (µM)

Example entries begin here.
| Compound | Value unit | Measured value |
| --- | --- | --- |
| CC(C)[C@H](NC(=O)CNC(=O)[C@H](CO)NC(=O)c1ccccc1N)C(=O)N[C@@H](CS)C(=O)N[C@@H](Cc1ccc(O)c([N+](=O)[O-])c1)C(N)=O (H-[2Abz]SGVC[Tyr(3-NO2)]-NH2) | µM | 4.26 |
| C[C@H](NC(=O)c1ccccc1N)C(=O)N1CCC[C@H]1C(=O)NCC(=O)N[C@@H](CC(=O)O)C(=O)N[C@@H](Cc1ccc(O)c([N+](=O)[O-])c1)C(N)=O (H-[2Abz]APGD[Tyr(3-NO2)]-NH2) | µM | 19.6 |
| NC(=O)C[C@H](NC(=O)c1ccccc1N)C(=O)N1CCC[C@H]1C(=O)N[C@@H](CO)C(=O)N[C@@H](Cc1cnc[nH]1)C(=O)N[C@@H](Cc1ccc(O)c([N+](=O)[O-])c1)C(N)=O (H-[2Abz]NPSH[Tyr(3-NO2)]-NH2) | µM | 5.18 |
| C[C@H](NC(=O)[C@H](CC(N)=O)NC(=O)c1ccccc1N)C(=O)N[C@@H](CS)C(=O)N[C@@H](CS)C(=O)N[C@@H](Cc1ccc(O)c([N+](=O)[O-])c1)C(N)=O (H-[2Abz]NACC[Tyr(3-NO2)]-NH2) | µM | 3.21 |
| CC(C)C[C@H](NC(=O)[C@H](Cc1cnc[nH]1)NC(=O)c1ccccc1N)C(=O)N[C@H](C(=O)N[C@@H](Cc1cnc[nH]1)C(=O)N[C@@H](Cc1ccc(O)c([N+](=O)[O-])c1)C(N)=O)C(C)C (H-[2Abz]HLVH[Tyr(3-NO2)]-NH2) | µM | 14.1 |
| NC(=O)[C@H](Cc1ccc(O)c([N+](=O)[O-])c1)NC(=O)[C@H](Cc1cnc[nH]1)NC(=O)[C@H](CS)NC(=O)CNC(=O)[C@H](CC(=O)O)NC(=O)c1ccccc1N (H-[2Abz]DGCH[Tyr(3-NO2)]-NH2) | µM | 7.02 |
| C[C@@H](O)[C@H](NC(=O)[C@H](Cc1c[nH]c2ccccc12)NC(=O)[C@H](CC(N)=O)NC(=O)c1ccccc1N)C(=O)N[C@@H](CC(N)=O)C(=O)N[C@@H](Cc1ccc(O)c([N+](=O)[O-])c1)C(N)=O (H-[2Abz]NWTN[Tyr(3-NO2)]-NH2) | µM | 6.02 |

I: C[C@H](NC(=O)c1ccccc1N)C(=O)NCC(=O)N1CCC[C@H]1C(=O)N[C@@H](CC(N)=O)C(=O)N[C@@H](Cc1ccc(O)c([N+](=O)[O-])c1)C(N)=O (H-[2Abz]AGPN[Tyr(3-NO2)]-NH2)
II: CC(C)[C@H](NC(=O)[C@H](CC(=O)O)NC(=O)[C@H](CC(N)=O)NC(=O)c1ccccc1N)C(=O)N[C@@H](CC(=O)O)C(=O)N[C@@H](Cc1ccc(O)c([N+](=O)[O-])c1)C(N)=O (H-[2Abz]NDVD[Tyr(3-NO2)]-NH2)
Problem: Short answer wanted: higher Km, I or II ? Choose, then provide that item's label.
Result: II
(II: 43.2 µM, I: 4.18 µM)

====

- Test system: dengue virus type 1
- Protocol summary: Activity of dengue virus 1 recombinant NS3 protease expressed in Escherichia coli C41(DE3) by fluorogenic assay
Non-standard residues stand in square brackets, D forms with d. Residues, ends and D or L forms follow the SMILES beside them. Tyr(3-NO2) = N[C@@H](Cc1ccc(O)c([N+](=O)[O-])c1)C(=O)O; 2Abz = Nc1ccccc1C(=O)O
Endpoint name: Km (µM)

| Compound | Endpoint name | Measured value |
| --- | --- | --- |
| C[C@H](NC(=O)c1ccccc1N)C(=O)N[C@@H](CC(N)=O)C(=O)NCC(=O)N[C@@H](Cc1cnc[nH]1)C(=O)N[C@@H](Cc1ccc(O)c([N+](=O)[O-])c1)C(N)=O (H-[2Abz]ANGH[Tyr(3-NO2)]-NH2) | Km | 22.3 |
| C[C@@H](O)[C@H](NC(=O)[C@H](CO)NC(=O)c1ccccc1N)C(=O)N1CCC[C@H]1C(=O)N[C@@H](Cc1cnc[nH]1)C(=O)N[C@@H](Cc1ccc(O)c([N+](=O)[O-])c1)C(N)=O (H-[2Abz]STPH[Tyr(3-NO2)]-NH2) | Km | 18.1 |
| CSCC[C@H](NC(=O)CNC(=O)[C@H](C)NC(=O)[C@H](CO)NC(=O)c1ccccc1N)C(=O)N[C@@H](Cc1ccc(O)c([N+](=O)[O-])c1)C(N)=O (H-[2Abz]SAGM[Tyr(3-NO2)]-NH2) | Km | 25.5 |

====

- Test system: dengue virus type 4
- Protocol summary: Activity of dengue virus 4 recombinant NS3 protease expressed in Escherichia coli C41(DE3) by fluorogenic assay
Non-standard residues stand in square brackets, D forms with d. Residues, ends and D or L forms follow the SMILES beside them. Tyr(3-NO2) = N[C@@H](Cc1ccc(O)c([N+](=O)[O-])c1)C(=O)O; 2Abz = Nc1ccccc1C(=O)O
Endpoint name: kcat (s⁻¹)

Example entries begin here.
| Compound | Endpoint name | Measured value |
| --- | --- | --- |
| C[C@H](NC(=O)c1ccccc1N)C(=O)N[C@@H](CC(N)=O)C(=O)NCC(=O)N[C@@H](Cc1cnc[nH]1)C(=O)N[C@@H](Cc1ccc(O)c([N+](=O)[O-])c1)C(N)=O (H-[2Abz]ANGH[Tyr(3-NO2)]-NH2) | kcat | 0.0595 |
| NC(=O)[C@H](Cc1ccc(O)c([N+](=O)[O-])c1)NC(=O)[C@H](CS)NC(=O)CNC(=O)[C@H](Cc1c[nH]c2ccccc12)NC(=O)[C@H](CO)NC(=O)c1ccccc1N (H-[2Abz]SWGC[Tyr(3-NO2)]-NH2) | kcat | 0.0398 |
| C[C@@H](O)[C@H](NC(=O)CNC(=O)CNC(=O)c1ccccc1N)C(=O)N[C@@H](CC(=O)O)C(=O)N[C@@H](Cc1ccc(O)c([N+](=O)[O-])c1)C(N)=O (H-[2Abz]GGTD[Tyr(3-NO2)]-NH2) | kcat | 0.0585 |

A: CSCC[C@H](NC(=O)CNC(=O)[C@H](C)NC(=O)[C@H](C)NC(=O)c1ccccc1N)C(=O)N[C@@H](Cc1ccc(O)c([N+](=O)[O-])c1)C(N)=O (H-[2Abz]AAGM[Tyr(3-NO2)]-NH2)
B: NC(=O)[C@H](Cc1ccc(O)c([N+](=O)[O-])c1)NC(=O)[C@@H]1CCCN1C(=O)[C@@H]1CCCN1C(=O)CNC(=O)c1ccccc1N (H-[2Abz]GPP[Tyr(3-NO2)]-NH2)
C: NC(=O)[C@H](Cc1ccc(O)c([N+](=O)[O-])c1)NC(=O)[C@H](Cc1cnc[nH]1)NC(=O)[C@H](CS)NC(=O)CNC(=O)[C@H](CC(=O)O)NC(=O)c1ccccc1N (H-[2Abz]DGCH[Tyr(3-NO2)]-NH2)
Problem: Order the records so the highest kcat appears first and the lowest last. Please express your ranking as an ordered list of the labels.
Result: A, B, C
(A: 0.0852 s⁻¹, B: 0.022 s⁻¹, C: 0.00783 s⁻¹)
